# System: Mycobacterium tuberculosis
# PROCEDURE SUMMARY: Antimycobacterial activity against dormant state of Mycobacterium tuberculosis H37Ra assessed as growth inhibition at 3 ug/ml after 12 days by XTT reduction menadione assay relative to control
# Type: functional
# CONDITION INFO: 288 h, read-out: GI
Values of inhibition of growth at 3 µg/mL greater than or equal to 30% map to true (1); values below map to false (0).

Solved entries:
O=C1/C(=C/c2cc3cc(F)ccc3nc2Cl)CNC/C1=C\c1cc2cc(F)ccc2nc1Cl true (1)
CN1C/C(=C\c2cc3cc(Cl)ccc3nc2Cl)C(=O)/C(=C/c2cc3cc(Cl)ccc3nc2Cl)C1 true (1)
Cc1cccc2cc(/C=C3\CN(C)C/C(=C\c4cc5cccc(C)c5nc4Cl)C3=O)c(Cl)nc12 false (0)
COc1ccc2cc(/C=C3\CNC/C(=C\c4cc5ccc(OC)cc5nc4Cl)C3=O)c(Cl)nc2c1 true (1)
COc1ccc2nc(Cl)c(/C=C3\CN(C)C/C(=C\c4cc5cc(OC)ccc5nc4Cl)C3=O)cc2c1 true (1)
Cc1cccc2cc(/C=C3\CNC/C(=C\c4cc5cccc(C)c5nc4Cl)C3=O)c(Cl)nc12 false (0)

[Q] Check this compound for inhibition of growth at 3 µg/mL at or above 30%: Cc1ccc2nc(Cl)c(/C=C3\CN(C)C/C(=C\c4cc5cc(C)ccc5nc4Cl)C3=O)cc2c1
[A] false (0)

[Q] Check this compound for inhibition of growth at 3 µg/mL at or above 30%: O=C1/C(=C/c2cc3ccccc3nc2Cl)CNC/C1=C\c1cc2ccccc2nc1Cl
[A] false (0)

[Q] Check this compound for inhibition of growth at 3 µg/mL at or above 30%: COc1ccc2cc(/C=C3\CN(C)C/C(=C\c4cc5ccc(OC)cc5nc4Cl)C3=O)c(Cl)nc2c1
[A] true (1)

[Q] Check this compound for inhibition of growth at 3 µg/mL at or above 30%: O=C1/C(=C/c2cc3cc(Cl)ccc3nc2Cl)CNC/C1=C\c1cc2cc(Cl)ccc2nc1Cl
[A] false (0)

[Q] Check this compound for inhibition of growth at 3 µg/mL at or above 30%: Cc1ccc2cc(/C=C3\CN(C)C/C(=C\c4cc5ccc(C)cc5nc4Cl)C3=O)c(Cl)nc2c1
[A] false (0)

[Q] Check this compound for inhibition of growth at 3 µg/mL at or above 30%: CN1C/C(=C\c2cc3cc(F)ccc3nc2Cl)C(=O)/C(=C/c2cc3cc(F)ccc3nc2Cl)C1
[A] true (1)

[Q] Check this compound for inhibition of growth at 3 µg/mL at or above 30%: Cc1ccc2cc(/C=C3\CNC/C(=C\c4cc5ccc(C)cc5nc4Cl)C3=O)c(Cl)nc2c1
[A] false (0)

[Q] Check this compound for inhibition of growth at 3 µg/mL at or above 30%: COc1ccc2nc(Cl)c(/C=C3\CNC/C(=C\c4cc5cc(OC)ccc5nc4Cl)C3=O)cc2c1
[A] true (1)

[Q] Check this compound for inhibition of growth at 3 µg/mL at or above 30%: Cc1ccc2nc(Cl)c(/C=C3\CNC/C(=C\c4cc5cc(C)ccc5nc4Cl)C3=O)cc2c1
[A] false (0)

[Q] Check this compound for inhibition of growth at 3 µg/mL at or above 30%: CN1C/C(=C\c2cc3ccccc3nc2Cl)C(=O)/C(=C/c2cc3ccccc3nc2Cl)C1
[A] false (0)

###

# PROCEDURE SUMMARY: Selectivity index, ratio of GI90 for human HCT116 cells to MIC90 for dormant state of Mycobacterium tuberculosis H37Ra
# Format: toxicity
# CONDITION INFO: read-out: Selectivity Index
Listed below: selectivity ratio values for each entry.

These solved cases illustrate the format of a correct answer.
CN1C/C(=C\c2cc3ccccc3nc2Cl)C(=O)/C(=C/c2cc3ccccc3nc2Cl)C1 > 3
CO[C@H]1/C=C/O[C@@]2(C)Oc3c(C)c(O)c4c(O)c(c(/C=N/N5CCN(C)CC5)c(O)c4c3C2=O)NC(=O)/C(C)=C\C=C\[C@H](C)[C@H](O)[C@@H](C)[C@@H](O)[C@@H](C)[C@H](OC(C)=O)[C@@H]1C > 133
COc1ccc2cc(/C=C3\CN(C)C/C(=C\c4cc5ccc(OC)cc5nc4Cl)C3=O)c(Cl)nc2c1 > 12
O=C1/C(=C/c2cc3cc(F)ccc3nc2Cl)CNC/C1=C\c1cc2cc(F)ccc2nc1Cl > 3

[Q] Please list selectivity ratio recorded for the compound COc1ccc2cc(/C=C3\CNC/C(=C\c4cc5ccc(OC)cc5nc4Cl)C3=O)c(Cl)nc2c1
[A] > 3

###

Listed below: GI50 at 48 h values for each entry.
# PROCEDURE SUMMARY: Cytotoxicity against human MCF7 cells assessed as growth inhibition after 48 hrs by MTT assay
# Type: cell-based
# CONDITION INFO: MCF7 cells

[Q] Please list GI50 at 48 h recorded for the compound COc1ccc2cc(/C=C3\CN(C)C/C(=C\c4cc5ccc(OC)cc5nc4Cl)C3=O)c(Cl)nc2c1
[A] > 100 µg/mL

[Q] Please list GI50 at 48 h recorded for the compound Cc1ccc2cc(/C=C3\CNC/C(=C\c4cc5ccc(C)cc5nc4Cl)C3=O)c(Cl)nc2c1
[A] > 100 µg/mL

[Q] Please list GI50 at 48 h recorded for the compound O=C1/C(=C/c2cc3cc(F)ccc3nc2Cl)CNC/C1=C\c1cc2cc(F)ccc2nc1Cl
[A] > 100 µg/mL

[Q] Please list GI50 at 48 h recorded for the compound COc1ccc2nc(Cl)c(/C=C3\CNC/C(=C\c4cc5cc(OC)ccc5nc4Cl)C3=O)cc2c1
[A] 8.93 µg/mL

[Q] Please list GI50 at 48 h recorded for the compound COc1ccc2cc(/C=C3\CNC/C(=C\c4cc5ccc(OC)cc5nc4Cl)C3=O)c(Cl)nc2c1
[A] > 100 µg/mL

[Q] Please list GI50 at 48 h recorded for the compound CN1C/C(=C\c2cc3ccccc3nc2Cl)C(=O)/C(=C/c2cc3ccccc3nc2Cl)C1
[A] > 100 µg/mL

###

Listed below: GI50 at 48 h values for each entry.
# PROCEDURE SUMMARY: Cytotoxicity against human A549 cells assessed as growth inhibition after 48 hrs by MTT assay
# Format: cell-based
# CONDITION INFO: A549 cells

COMPOUND	READING
Cc1ccc2cc(/C=C3\CN(C)C/C(=C\c4cc5ccc(C)cc5nc4Cl)C3=O)c(Cl)nc2c1	> 100 µg/mL

[Q] Please list GI50 at 48 h recorded for the compound COc1ccc2nc(Cl)c(/C=C3\CNC/C(=C\c4cc5cc(OC)ccc5nc4Cl)C3=O)cc2c1
[A] > 100 µg/mL

[Q] Please list GI50 at 48 h recorded for the compound COc1ccc2cc(/C=C3\CN(C)C/C(=C\c4cc5ccc(OC)cc5nc4Cl)C3=O)c(Cl)nc2c1
[A] > 100 µg/mL

[Q] Please list GI50 at 48 h recorded for the compound CN1C/C(=C\c2cc3cc(Cl)ccc3nc2Cl)C(=O)/C(=C/c2cc3cc(Cl)ccc3nc2Cl)C1
[A] > 100 µg/mL

[Q] Please list GI50 at 48 h recorded for the compound CN1C/C(=C\c2cc3ccccc3nc2Cl)C(=O)/C(=C/c2cc3ccccc3nc2Cl)C1
[A] > 100 µg/mL

[Q] Please list GI50 at 48 h recorded for the compound Cc1ccc2cc(/C=C3\CNC/C(=C\c4cc5ccc(C)cc5nc4Cl)C3=O)c(Cl)nc2c1
[A] > 100 µg/mL

[Q] Please list GI50 at 48 h recorded for the compound CO[C@H]1/C=C/O[C@@]2(C)Oc3c(C)c(O)c4c(O)c(c(/C=N/N5CCN(C)CC5)c(O)c4c3C2=O)NC(=O)/C(C)=C\C=C\[C@H](C)[C@H](O)[C@@H](C)[C@@H](O)[C@@H](C)[C@H](OC(C)=O)[C@@H]1C [RIFAMPIN]
[A] > 100 µg/mL

[Q] Please list GI50 at 48 h recorded for the compound O=C1/C(=C/c2cc3cc(F)ccc3nc2Cl)CNC/C1=C\c1cc2cc(F)ccc2nc1Cl
[A] > 100 µg/mL

[Q] Please list GI50 at 48 h recorded for the compound COc1ccc2cc(/C=C3\CNC/C(=C\c4cc5ccc(OC)cc5nc4Cl)C3=O)c(Cl)nc2c1
[A] > 100 µg/mL

###

# PROCEDURE SUMMARY: Cytotoxicity against human HCT116 cells assessed as growth inhibition after 48 hrs by MTT assay
# Assay type: cell-based, HCT-116
# CONDITION INFO: HCT116 cells
Listed below: GI50 at 48 h values for each entry.

COc1ccc2nc(Cl)c(/C=C3\CNC/C(=C\c4cc5cc(OC)ccc5nc4Cl)C3=O)cc2c1 9.83 µg/mL
CC(=O)O[C@H]1C(=O)[C@@]2(C)[C@H]([C@H](OC(=O)c3ccccc3)[C@]3(O)C[C@H](OC(=O)[C@H](O)[C@@H](NC(=O)c4ccccc4)c4ccccc4)C(C)=C1C3(C)C)[C@]1(OC(C)=O)CO[C@@H]1C[C@@H]2O 0.128 µg/mL
Cc1ccc2cc(/C=C3\CNC/C(=C\c4cc5ccc(C)cc5nc4Cl)C3=O)c(Cl)nc2c1 > 100 µg/mL

[Q] Please list GI50 at 48 h recorded for the compound CO[C@H]1/C=C/O[C@@]2(C)Oc3c(C)c(O)c4c(O)c(c(/C=N/N5CCN(C)CC5)c(O)c4c3C2=O)NC(=O)/C(C)=C\C=C\[C@H](C)[C@H](O)[C@@H](C)[C@@H](O)[C@@H](C)[C@H](OC(C)=O)[C@@H]1C
[A] > 100 µg/mL

[Q] Please list GI50 at 48 h recorded for the compound O=C1/C(=C/c2cc3cc(F)ccc3nc2Cl)CNC/C1=C\c1cc2cc(F)ccc2nc1Cl
[A] 27.6 µg/mL

[Q] Please list GI50 at 48 h recorded for the compound COc1ccc2cc(/C=C3\CN(C)C/C(=C\c4cc5ccc(OC)cc5nc4Cl)C3=O)c(Cl)nc2c1
[A] > 100 µg/mL

[Q] Please list GI50 at 48 h recorded for the compound COc1ccc2cc(/C=C3\CNC/C(=C\c4cc5ccc(OC)cc5nc4Cl)C3=O)c(Cl)nc2c1
[A] > 100 µg/mL
